Test system: C. albicans SC5314
Test: Germ tube formation (GTF %) in vitro screening, GlcNAc-triggered differentiation assay
Format: cell-based, Candida albicans
Conditions: 200 μM
Please mark criterion met if the recorded GTF % (mean ± SEM, n = 2) is equal to or greater than 60%, and criterion not met if it falls below.

Consider the worked cases shown below.
>  <molecule>
COc1cc(CCN)ccc1O [3-Methoxy-4-hydroxy-phenylethyl amine]

>  <testedOn>
C. albicans SC5314

>  <qualitativeLabel>
criterion met

$$$$
>  <molecule>
CC(C)=CCC/C(C)=C/CC/C(C)=C/CO[C@@H]1C(O)C(O)OC(CO)C1O (stereo partly drawn) [#8 synthesized analog]

>  <testedOn>
C. albicans SC5314

>  <qualitativeLabel>
criterion met

$$$$
>  <molecule>
CC(C)=CCC/C(C)=C/CC/C(C)=C/COCCCCO [#5 synthesized analog]

>  <testedOn>
C. albicans SC5314

>  <qualitativeLabel>
criterion not met

$$$$

Data request: Could you verify whether the entry OCCc1ccc(O)c(O)c1 [hydroxytyrosol] shows GTF % (mean ± SEM, n = 2) of no less than 60%?
Data returned: criterion met

Data request: Could you verify whether the entry CC(C)=CCC/C(C)=C/CC/C(C)=C/COC(=O)CCC(=O)OCCO [#4 synthesized analog] shows GTF % (mean ± SEM, n = 2) of no less than 60%?
Data returned: criterion not met

Data request: Could you verify whether the entry CC(C)=CCC/C(C)=C/CC/C(C)=C/CO [E,E-farnesol, reference compound] shows GTF % (mean ± SEM, n = 2) of no less than 60%?
Data returned: criterion not met

Data request: Could you verify whether the entry CC(C)=CCC/C(C)=C/CC/C(C)=C/COCCCO [#6 synthesized analog] shows GTF % (mean ± SEM, n = 2) of no less than 60%?
Data returned: criterion not met

Data request: Could you verify whether the entry OC=Cc1ccccc1 [β-phenylethenol] shows GTF % (mean ± SEM, n = 2) of no less than 60%?
Data returned: criterion met

====

Record form. Attribute: % change in the death rate compared to the control. Fill in for each entry.
Tested on: C. elegans glp4; sek1 infected with C. albicans SC5314
Experiment: Death rate of C. elegans glp4; sek1 infected with C. albicans SC5314, 96 well plates
Type: in vivo, Caenorhabditis elegans
Conditions: 1.0 mM; 5 days; 25° C.; two replicates
Answers are plain numbers, in %.

Some solved entries appear below for comparison.
>  <molecule>
CC(C)=CCC/C(C)=C/CC/C(C)=C/COCCCCO [#5 synthesized analog]

>  <reported>
9

$$$$
>  <molecule>
CC(C)=CCC/C(C)=C/CC/C(C)=C/COC(=O)CCC(=O)OCCCO [#3 synthesized analog]

>  <reported>
3

$$$$

Report % change in the death rate compared to the control for every entry below.
1. C=CC(C)(O)CC/C=C(\C)CCC=C(C)C (stereo not drawn) [trans-nerolidol, reference compound]
2. CC(C)=CCC/C(C)=C/CC/C(C)=C/COC(=O)CCC(=O)O [#1 synthesized analog]

Data returned:
1: −8; 2: −29
